Listed here are molecules together with their documented IC50.
# System under test: full length XPA protein (Homo sapiens);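 further: XPA expressed in Sf9 cells, preincubated with compound on ice before adding DNA, complex resolved on native polyacrylamide gel at 4 °C, PhosphorImager band intensity, binding inhibition versus DMSO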
# Sequence (P23025 whole entry): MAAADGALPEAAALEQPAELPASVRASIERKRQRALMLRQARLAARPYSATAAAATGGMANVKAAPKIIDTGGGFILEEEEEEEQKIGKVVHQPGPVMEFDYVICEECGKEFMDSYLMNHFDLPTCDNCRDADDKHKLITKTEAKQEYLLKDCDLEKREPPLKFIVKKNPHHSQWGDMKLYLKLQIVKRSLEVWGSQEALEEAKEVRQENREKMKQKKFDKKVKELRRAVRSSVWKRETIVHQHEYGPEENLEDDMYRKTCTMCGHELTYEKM
# Protocol: biochemical
# Measurement context: IC50 (μM), EMSA, 32P labeled 30 bp duplex DNA containing a single 1,2 dGpG cisplatin adduct, several values in a cell = separate determinations
Assay endpoint: IC50

1. CCOC(=O)c1cccc(N2N=C(C)/C(=C/c3ccc(-c4ccc(Cl)c(C(=O)O)c4)o3)C2=O)c1 [Compound 31a] | > 25 µM
2. O=C(O)c1cccc(N2N=C(C(F)(F)F)/C(=C/c3ccc(-c4ccc(Cl)c(C(=O)NCC5CC5)c4)o3)C2=O)c1 [NG-04-304] | > 50 µM
3. CCOC(=O)c1cccc(N2N=C(C)/C(=C/c3ccc(-c4ccc(Cl)c(C(=O)NCc5ccc(F)cc5)c4)o3)C2=O)c1 [Compound 33a] | > 25 µM
4. COc1cccc(NC(=O)c2cc(-c3ccc(/C=C4\C(=O)N(c5cccc(C(=O)O)c5)N=C4C(F)(F)F)o3)ccc2Cl)c1 [NG-04-312] | > 50 µM
